- assayed target: T1, human VEGF (hVEGF) (human, UniProt P15692 181-395)
- T1 construct: also called VEGF-A
- T1 sequence: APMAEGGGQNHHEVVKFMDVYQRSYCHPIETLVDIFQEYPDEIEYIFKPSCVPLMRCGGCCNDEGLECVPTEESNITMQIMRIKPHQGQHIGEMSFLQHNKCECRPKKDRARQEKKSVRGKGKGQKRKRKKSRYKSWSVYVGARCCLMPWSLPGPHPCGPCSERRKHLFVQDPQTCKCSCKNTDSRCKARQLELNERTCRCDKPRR
- method: SPR
Kind request: treat 0.0002 s⁻¹ as inclusive, so koff at 0.0002 s⁻¹ or higher is 1 (yes), anything lower is 0 (no).

Problem: Does the binder G6.31 Y58R.N94A.F83A (Fab, name in Kabat numbering, V domains shown, Fab) VH: EVQLVESGGGLVQPGGSLRLSCAASGFTISDYWIHWVRQAPGKGLEWVAGITPAGGYTRYADSVKGRFTISADTSKNTAYLQMNSLRAEDTAVYYCARFVFFLPYAMDYWGQGTLVTVSS VL: DIQMTQSPSSLSASVGDRVTITCRASQDVSTAVAWYQQKPGKAPKLLIYSASFLYSGVPSRFSGSGSGTDFTLTISSLQPEDAATYYCQQGYGAPFTFGQGTKVEIK have recorded koff that is 0.0002 s⁻¹ or more?
Solution: 1 (yes)

Problem: Does the binder G6.31 HC-Y58R (Fab, name in Kabat numbering, V domains shown, Fab) VH: EVQLVESGGGLVQPGGSLRLSCAASGFTISDYWIHWVRQAPGKGLEWVAGITPAGGYTRYADSVKGRFTISADTSKNTAYLQMNSLRAEDTAVYYCARFVFFLPYAMDYWGQGTLVTVSS VL: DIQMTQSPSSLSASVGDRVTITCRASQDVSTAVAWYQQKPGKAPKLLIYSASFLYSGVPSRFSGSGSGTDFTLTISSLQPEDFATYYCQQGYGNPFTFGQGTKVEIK have recorded koff that is 0.0002 s⁻¹ or more?
Solution: 0 (no)

Problem: Does the binder G6.31 LC-F83A (Fab, V domains shown, Fab) VH: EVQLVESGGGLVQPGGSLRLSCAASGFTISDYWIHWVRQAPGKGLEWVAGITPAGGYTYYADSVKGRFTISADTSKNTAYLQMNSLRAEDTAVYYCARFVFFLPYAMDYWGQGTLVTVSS VL: DIQMTQSPSSLSASVGDRVTITCRASQDVSTAVAWYQQKPGKAPKLLIYSASFLYSGVPSRFSGSGSGTDFTLTISSLQPEDAATYYCQQGYGNPFTFGQGTKVEIK have recorded koff that is 0.0002 s⁻¹ or more?
Solution: 1 (yes)

Problem: Does the binder G6.31 LC-N94A (Fab, V domains shown, Fab) VH: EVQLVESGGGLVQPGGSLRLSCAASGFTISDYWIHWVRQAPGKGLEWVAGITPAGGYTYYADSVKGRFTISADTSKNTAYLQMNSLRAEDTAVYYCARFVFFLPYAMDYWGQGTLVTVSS VL: DIQMTQSPSSLSASVGDRVTITCRASQDVSTAVAWYQQKPGKAPKLLIYSASFLYSGVPSRFSGSGSGTDFTLTISSLQPEDFATYYCQQGYGAPFTFGQGTKVEIK have recorded koff that is 0.0002 s⁻¹ or more?
Solution: 1 (yes)

Problem: Does the binder G6.31 HC-N82aR (Fab, name in Kabat numbering, V domains shown, Fab) VH: EVQLVESGGGLVQPGGSLRLSCAASGFTISDYWIHWVRQAPGKGLEWVAGITPAGGYTYYADSVKGRFTISADTSKNTAYLQMRSLRAEDTAVYYCARFVFFLPYAMDYWGQGTLVTVSS VL: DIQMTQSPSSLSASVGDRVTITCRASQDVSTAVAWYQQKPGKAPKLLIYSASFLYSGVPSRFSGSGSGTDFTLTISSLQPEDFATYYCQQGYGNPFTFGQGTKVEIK have recorded koff that is 0.0002 s⁻¹ or more?
Solution: 0 (no)

Hey, just so you know, these numbers are from patent US20210115124A1.
